# Substrate: N[C@@H](Cc1ccccc1)C(=O)O
# protocol.summary: purified protein
# Type: biochemical, Halalkalibacterium halodurans
# measurement.setup: oxidative deamination, 2 mM NAD+, 50 mM glycine-KCl-KOH pH 10.4, 25°C
Reported Km values follow for various proteins
measurement.type: Km

{"columns": ["protein", "reported.measurement"],
 "data": [
  ["PheDH (Halalkalibacterium halodurans C-125; N276L) (protein) MLTKTPTVTSTLDIFTEMAEHEQVLFCHDPSSGLRAIIAIHDTTLGPALGGCRMYPYQTTEDALRDVLRLSKGMTQKCAAADVDFGGGKAVIIGDPAKDKSANLFRAFGQFVESLNGRFYTGTDMGTTMEDFVHALKETNGIVGIPKEYGGSGDSSVPTAKGVINSLKAISQVVLKDKQFSGRTYAIQGLGKVGFKVAEELLKEGNDLYVSDLQESLPLRLQQLGQRLGRHVEILHGDEIYEAAADVFVPCAQGAILNDATIARLKVKAIAGAANLQLEAERHGQMLHDQGIWFAPDYIVNSGGLIQVADELYGSNEKRVLSKTNAIYDTILEIFHQAERHHITTLQAANQLCERRIRERARRNNFFVNRIRPKWNLRK", "8.71 ± 0.2 mM"],
  ["PheDH (Halalkalibacterium halodurans C-125; E113D) (protein) MLTKTPTVTSTLDIFTEMAEHEQVLFCHDPSSGLRAIIAIHDTTLGPALGGCRMYPYQTTEDALRDVLRLSKGMTQKCAAADVDFGGGKAVIIGDPAKDKSANLFRAFGQFVDSLNGRFYTGTDMGTTMEDFVHALKETNGIVGIPKEYGGSGDSSVPTAKGVINSLKAISQVVLKDKQFSGRTYAIQGLGKVGFKVAEELLKEGNDLYVSDLQESLPLRLQQLGQRLGRHVEILHGDEIYEAAADVFVPCAQGAILNDATIARLKVKAIAGAANNQLEAERHGQMLHDQGIWFAPDYIVNSGGLIQVADELYGSNEKRVLSKTNAIYDTILEIFHQAERHHITTLQAANQLCERRIRERARRNNFFVNRIRPKWNLRK", "8.28 ± 0.4 mM"],
  ["PheDH (Halalkalibacterium halodurans C-125; E113D/N276L) (protein) MLTKTPTVTSTLDIFTEMAEHEQVLFCHDPSSGLRAIIAIHDTTLGPALGGCRMYPYQTTEDALRDVLRLSKGMTQKCAAADVDFGGGKAVIIGDPAKDKSANLFRAFGQFVDSLNGRFYTGTDMGTTMEDFVHALKETNGIVGIPKEYGGSGDSSVPTAKGVINSLKAISQVVLKDKQFSGRTYAIQGLGKVGFKVAEELLKEGNDLYVSDLQESLPLRLQQLGQRLGRHVEILHGDEIYEAAADVFVPCAQGAILNDATIARLKVKAIAGAANLQLEAERHGQMLHDQGIWFAPDYIVNSGGLIQVADELYGSNEKRVLSKTNAIYDTILEIFHQAERHHITTLQAANQLCERRIRERARRNNFFVNRIRPKWNLRK", "5.14 ± 0.3 mM"]
]}

This collection of values is drawn from paper PMC9728165.
